For each record, write down the corresponding fold change of Histamine concentration.
Test system: Klebsiella aerogenes DSM 30053
experimental.details: fold change of Histamine concentration vs plate DMSO controls (fold change (ratio)); higher = more amine produced, active = hit call of the paper (significant change in both replicates, either direction)
condition.info: incubation time: 27 h, anaerobic, 37 °C
Counter-ions that a name gives are not always drawn.
Reply briefly: the number, and no unit.

Ask | Need fold change of Histamine concentration, item O=C(O)Cc1sc(-c2ccccc2)nc1-c1ccc(Cl)cc1 [Fentiazac] (20 µM)
Reply | 0.945

Ask | Please give the measured fold change of Histamine concentration for this compound: CC(NCCC(c1ccccc1)c1ccccc1)c1ccccc1 (stereo not given) [Fendiline hydrochloride] (20 µM)
Reply | 1.06

Ask | State the recorded fold change of Histamine concentration for this entry: CS(=O)(=O)c1ccc([C@@H](O)[C@@H](CO)NC(=O)C(Cl)Cl)cc1 [Thiamphenicol] (20 µM)
Reply | 0.0658

Ask | # fold change of Histamine concentration lookup, item Cc1cccc(Nc2ccncc2S(=O)(=O)NC(=O)NC(C)C)c1 [Torsemide] (20 µM)
Reply | 1.03

Ask | GET /values?readout=fold change of Histamine concentration&item= CCOc1cc(N)c(Cl)cc1C(=O)NCC1CN(Cc2ccc(F)cc2)CCO1 (stereo not given) [Mosapride] (20 µM)
Reply | 1.05

Ask | Can you look up the measured fold change of Histamine concentration of CC1=C(C(=O)O)N2C(=O)[C@@H](NC(=O)[C@H](N)c3ccccc3)[C@H]2SC1 [Cephalexin monohydrate] (20 µM) for me?
Reply | 1.03

Ask | Name the reported fold change of Histamine concentration value associated with the compound NS(=O)(=O)c1cc(C2(O)NC(=O)c3ccccc32)ccc1Cl (stereo not given) [Chlorthalidone] (20 µM)
Reply | 1.09

Ask | Could you share which fold change of Histamine concentration value was measured for COc1cc(C(=O)NC2CCCNC2)cc(OC)c1OC (stereo not given) [Troxipide] (20 µM) ?
Reply | 0.989

Ask | For the compound CNCCCC1c2ccccc2C=Cc2ccccc21 [Protriptyline hydrochloride] (20 µM) , what fold change of Histamine concentration is on record?
Reply | 1.02

Ask | Requested field: fold change of Histamine concentration. Item: CCN(CC)C(C)CN1c2ccccc2Sc2ccccc21 (stereo not given) [Ethopropazine hydrochloride] (20 µM)
Reply | 1.01

Ask | Look up fold change of Histamine concentration for this compound: CN(C)/N=N/c1[nH]cnc1C(N)=O [Dacarbazine] (20 µM)
Reply | 0.954

Ask | Record request: fold change of Histamine concentration value, item CNc1ncnc2c1ncn2[C@@H]1O[C@H](CO)[C@@H](O)[C@H]1O [N6-methyladenosine] (20 µM)
Reply | 1.03

Ask | GET /values?readout=fold change of Histamine concentration&item= CCC1NC(=O)c2cc(S(N)(=O)=O)c(Cl)cc2N1 (stereo not given) [Quinethazone] (20 µM)
Reply | 1.02

Ask | So what's the measured fold change of Histamine concentration for this one? Nc1nc(N)nc(-c2cc(Cl)ccc2Cl)n1 [Irsogladine maleate] (20 µM)
Reply | 0.989

Ask | Which fold change of Histamine concentration value is on record for CCCCC1=NC2(CCCC2)C(=O)N1Cc1ccc(-c2ccccc2-c2nnn[nH]2)cc1 [Irbesartan] (20 µM) ?
Reply | 1.05

Ask | Param item = N[C@@H](Cc1c[nH]c2ccccc12)C(=O)O [L-Tryptophan] (20 µM) ; retrieve measured fold change of Histamine concentration.
Reply | 1.02

Ask | Suppose we examine the compound NS(=O)(=O)c1cc2c(cc1Cl)N=C(CSCc1ccccc1)NS2(=O)=O [Benzthiazide] (20 µM) ; what fold change of Histamine concentration value has been reported?
Reply | 0.978

Ask | Requested read-out: fold change of Histamine concentration. Entry: CCCCc1ncc(/C=C(\Cc2cccs2)C(=O)O)n1Cc1ccc(C(=O)O)cc1 [Eprosartan mesylate] (20 µM)
Reply | 0.882

Ask | What value of measured fold change of Histamine concentration is listed for COC(=O)Nc1nc2cc(C(=O)c3ccccc3)ccc2[nH]1 [Mebendazole] (20 µM) ?
Reply | 0.962

Ask | I would be grateful if you could share the reported fold change of Histamine concentration for OC[C@H]1O[C@@H](c2ccc(Cl)c(Cc3ccc(O[C@H]4CCOC4)cc3)c2)[C@H](O)[C@@H](O)[C@@H]1O [Empagliflozin] (20 µM) .
Reply | 0.998

Ask | So what does the record say about fold change of Histamine concentration for CCCSc1nc(N[C@@H]2C[C@H]2c2ccc(F)c(F)c2)c2nnn([C@@H]3C[C@H](OCCO)[C@@H](O)[C@H]3O)c2n1 [Ticagrelor] (20 µM) ?
Reply | 0.977

Ask | fold change of Histamine concentration for O=C1CCC(N2C(=O)c3ccccc3C2=O)C(=O)N1 (stereo not given) [Thalidomide] (20 µM) ?
Reply | 1

Ask | For the compound shown here, CC(=O)OC[C@H]1O[C@@H](n2ncc(=O)[nH]c2=O)[C@H](OC(C)=O)[C@@H]1OC(C)=O [Azaribine] (20 µM) , give the reported fold change of Histamine concentration.
Reply | 0.978

Ask | Fill in: fold change of Histamine concentration of C[N+](C)(C)CCCCCC[N+](C)(C)C [Hexamethonium dibromide dihydrate] (20 µM) is ___
Reply | 1.02

Ask | What does the data say about its fold change of Histamine concentration? Entry: CC(C(=O)O)c1ccc(C(=O)c2cccs2)cc1 (stereo not given) [Suprofen] (20 µM)
Reply | 1.03

Ask | So what's the measured fold change of Histamine concentration for this one? CC1(C)O[C@@H]2C[C@H]3[C@@H]4CCC5=CC(=O)CC[C@]5(C)[C@@]4(F)[C@@H](O)C[C@]3(C)[C@]2(C(=O)CCl)O1 [Halcinonide] (20 µM)
Reply | 0.941

Ask | Report fold change of Histamine concentration for NC[C@@H]1O[C@H](O[C@H]2[C@@H](O)[C@H](O[C@@H]3[C@@H](O)[C@H](N)C[C@H](N)[C@H]3O[C@H]3O[C@H](CN)[C@@H](O)[C@H](O)[C@H]3N)O[C@@H]2CO)[C@H](N)[C@@H](O)[C@@H]1O [Neomycin sulfate] (20 µM) please.
Reply | 0.893

Ask | Look up fold change of Histamine concentration for this compound: CCOC(=O)[C@H](CCc1ccccc1)N[C@@H](C)C(=O)N1[C@H](C(=O)O)C[C@H]2CCCC[C@@H]21 [Trandolapril] (20 µM)
Reply | 0.994

Ask | Which fold change of Histamine concentration reading was recorded for the compound O=c1[nH]c(=O)n([C@H]2C[C@H](O)[C@@H](CO)O2)cc1I [Idoxuridine] (20 µM) ?
Reply | 1.03

Ask | Please report the recorded fold change of Histamine concentration for CC(=O)Nc1c(I)c(C(=O)N[C@H]2C(O)O[C@H](CO)[C@@H](O)[C@@H]2O)c(I)c(N(C)C(C)=O)c1I (stereo not given in full) [Metrizamide] (20 µM) .
Reply | 0.994
